FYI, the data here is from patent US20120184548A1.

Form: system (UniProt Q13627), quantity (log10(IC50)), values below.
property: log10(IC50) (log10 of the value in nM)

>  <molecule>
COc1cc2cc(C(=O)Nc3cc(-c4ncco4)ccc3C)c(=O)[nH]c2cc1OC [Example 51]

>  <measured.target>
UniProt Q13627

>  <meas.value>
2.77

$$$$
>  <molecule>
COc1cc2cc(C(=O)Nc3cc(C(=O)NCc4ccccc4)ccc3C)c(=O)[nH]c2cc1OC [Example 42]

>  <measured.target>
UniProt Q13627

>  <meas.value>
2.35

$$$$
>  <molecule>
COc1cc2cc(C(=O)Nc3cc(C(=O)NCc4cccc(Cl)c4)ccc3C)c(=O)[nH]c2cc1OC [Example 40]

>  <measured.target>
UniProt Q13627

>  <meas.value>
2.26

$$$$
>  <molecule>
COCCOc1cc2cc(C(=O)Nc3cc(C(=O)NC(CN)c4cccc(Cl)c4)ccc3Cl)c(=O)[nH]c2cc1OC (stereo not shown) [Example 60]

>  <measured.target>
UniProt Q13627

>  <meas.value>
1.16

$$$$
>  <molecule>
COCCOc1cc2cc(C(=O)Nc3cc(C(=O)N[C@@H](CCN)c4ccccc4)ccc3C)c(=O)[nH]c2cc1OC (single isomer, unassigned) [Example 59]

>  <measured.target>
UniProt Q13627

>  <meas.value>
3.38

$$$$
>  <molecule>
COc1cc2[nH]c(=O)c(C(=O)Nc3cc(C(=O)NCc4cccc(Cl)c4)ccc3C)cc2cc1O [Example 68]

>  <measured.target>
UniProt Q13627

>  <meas.value>
1.76

$$$$
>  <molecule>
COC(=O)c1ccc(C)c(NC(=O)C2Cc3cc(OC)c(OC)cc3NC2=O)c1 (stereo not shown) [Example 72]

>  <measured.target>
UniProt Q13627

>  <meas.value>
3.75

$$$$
>  <molecule>
COCCOc1cc2cc(C(=O)Nc3cc(C(=O)OC)ccc3Cl)c(=O)[nH]c2cc1OC [Example 53]

>  <measured.target>
UniProt Q13627

>  <meas.value>
2.39

$$$$
>  <molecule>
COCCOc1cc2cc(C(=O)Nc3cc(C(=O)N[C@@H](CCN)c4ccccc4)ccc3Cl)c(=O)[nH]c2cc1OC [Example 64]

>  <measured.target>
UniProt Q13627

>  <meas.value>
2.27

$$$$
>  <molecule>
COc1cc2cc(C(=O)Nc3cc(C(=O)NCC4CCCCC4)ccc3C)c(=O)[nH]c2cc1OC [Example 41]

>  <measured.target>
UniProt Q13627

>  <meas.value>
3.66

$$$$
>  <molecule>
COCCOCCOc1cc2cc(C(=O)Nc3cc(C(=O)NCc4cccc(Cl)c4)ccc3C)c(=O)[nH]c2cc1OC [Example 70]

>  <measured.target>
UniProt Q13627

>  <meas.value>
1.83

$$$$
>  <molecule>
COc1cc2[nH]c(=O)c(C(=O)Nc3cc(C(=O)NC(CCN)c4ccccc4)ccc3C)cc2cc1OCCN1CCOCC1 (stereo not shown) [Example 44]

>  <measured.target>
UniProt Q13627

>  <meas.value>
1.52

$$$$
>  <molecule>
COCCOc1cc2cc(C(=O)Nc3cc(C(=O)NC(CN)c4ccccc4)ccc3C)c(=O)[nH]c2cc1OC (stereo not shown) [Example 37]

>  <measured.target>
UniProt Q13627

>  <meas.value>
1.28

$$$$
>  <molecule>
COCCOc1cc2cc(C(=O)Nc3cc(-c4nnn[nH]4)ccc3C)c(=O)[nH]c2cc1OC [Example 24]

>  <measured.target>
UniProt Q13627

>  <meas.value>
3.25

$$$$
>  <molecule>
COc1cc2[nH]c(=O)c(C(=O)Nc3cc(C(=O)NCc4cccc(Cl)c4)ccc3C)cc2cc1OCCN1CCOCC1 [Example 43]

>  <measured.target>
UniProt Q13627

>  <meas.value>
0.78

$$$$
>  <molecule>
COCCOc1cc2cc(C(=O)Nc3cc(C(=O)NC(CCN)c4ccccc4)ccc3Cl)c(=O)[nH]c2cc1OC (stereo not shown) [Example 61]

>  <measured.target>
UniProt Q13627

>  <meas.value>
1.20

$$$$
